The values you see were collected from paper PMC5389348.

- experimentalDetails: Pharmacokinetic analysis, plasma and brain
- Format: in vivo
- conditionLabel: male, mouse, in vivo, sc; 10 mg/kg s.c., BALB/c mice; read-out: AUC0-t Ratio (Brain/Plasma)
attributeMeasured: Kp

Input OC(CN1CCOCC1)Cn1ccc(-c2ccc(OC(F)F)c(OC3CCCC3)c2)n1 (stereo not shown) [GEBR-32a] . Output Kp: 2.71

###

- experimentalDetails: Pharmacokinetic analysis, plasma and brain
- Format: in vivo
- conditionLabel: male, mouse, sc; brain; 10 mg/kg s.c., BALB/c mice
attributeMeasured: Tmax (min)
Dear colleague, please return just the value in min, with no unit written.

Input OC(CN1CCOCC1)Cn1ccc(-c2ccc(OC(F)F)c(OC3CCCC3)c2)n1 (stereo not shown) [GEBR-32a] . Output Tmax: 19.8

###

- experimentalDetails: Pharmacokinetic analysis, plasma and brain
- Format: in vivo
- conditionLabel: male, mouse, sc; brain; 10 mg/kg s.c., BALB/c mice; read-out: t1/2 (converted)
attributeMeasured: half-life (min)
Dear colleague, please return just the value in min, with no unit written.

Input OC(CN1CCOCC1)Cn1ccc(-c2ccc(OC(F)F)c(OC3CCCC3)c2)n1 (stereo not shown) [GEBR-32a] . Output half-life: 57

###

- experimentalDetails: Pharmacokinetic analysis, plasma and brain
- Assay type: in vivo
- conditionLabel: male, mouse, sc; brain; 10 mg/kg s.c., BALB/c mice
attributeMeasured: Cmax
Write down the value, and be sure its unit follows.

Input OC(CN1CCOCC1)Cn1ccc(-c2ccc(OC(F)F)c(OC3CCCC3)c2)n1 (stereo not shown) [GEBR-32a] . Output Cmax: 2610 ng/g

###

- experimentalDetails: Pharmacokinetic analysis, plasma and brain
- Assay type: in vivo
- conditionLabel: male, mouse, sc; plasma; 10 mg/kg s.c., BALB/c mice; read-out: t1/2 (converted)
attributeMeasured: half-life (min)
Dear colleague, please return just the value in min, with no unit written.

Input OC(CN1CCOCC1)Cn1ccc(-c2ccc(OC(F)F)c(OC3CCCC3)c2)n1 (stereo not shown) [GEBR-32a] . Output half-life: 57

###

- experimentalDetails: Pharmacokinetic analysis, plasma and brain
- Type: in vivo
- conditionLabel: male, mouse, sc; brain; 10 mg/kg s.c., BALB/c mice
attributeMeasured: AUC(0-t) (ng·h/mL)
Dear colleague, please return just the value in ng·h/mL, with no unit written.

Input OC(CN1CCOCC1)Cn1ccc(-c2ccc(OC(F)F)c(OC3CCCC3)c2)n1 (stereo not shown) [GEBR-32a] . Output AUC(0-t): 2330

###

- experimentalDetails: Pharmacokinetic analysis, plasma and brain
- Format: in vivo
- conditionLabel: male, BALB/c, mouse, plasma and brain, subcutaneous; 10 mg/kg; absorption and distribution to the brain
- Method: For blood analysis, 25 μL of plasma were transferred into a 1.5 mL Eppendorf tube and were added with 25 μL of methanol and 25 μL of internal standard (500 ng/mL voriconazole), followed by the addition of 100 μL methanol. […] AUC0-t: the area under the plasma/brain concentration versus time curve from time 0 to the last measurable concentration was calculated by using the linear trapezoidal rule. […]
attributeMeasured: Tmax (min)
Dear colleague, please return just the value in min, with no unit written.

Input OC(CN1CCOCC1)Cn1ccc(-c2ccc(OC(F)F)c(OC3CCCC3)c2)n1 (stereo not shown) [GEBR-32a] . Output Tmax: 20

###

- experimentalDetails: Pharmacokinetic analysis, plasma and brain
- Format: in vivo
- conditionLabel: male, mouse, sc; plasma; 10 mg/kg s.c., BALB/c mice
attributeMeasured: Cmax (ng/mL)
Dear colleague, please return just the value in ng/mL, with no unit written.

Input OC(CN1CCOCC1)Cn1ccc(-c2ccc(OC(F)F)c(OC3CCCC3)c2)n1 (stereo not shown) [GEBR-32a] . Output Cmax: 993
